Numbers sourced from patent US20020146750A1.

# Assayed Target: T1, MUC1 60-mer peptide NH2-(…)3-COOH (biotinylated in the ELISAs and selections)
# T1 construct: also called biotinylated MUC1 60-mer
# T1 sequence (peptide, as listed by the source): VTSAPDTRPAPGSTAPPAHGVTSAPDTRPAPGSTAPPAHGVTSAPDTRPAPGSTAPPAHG
# Measurement Protocol: ELISA, soluble Fab, biotinylated MUC1 60-mer; relative signal
Measured Quantity: binding result

- 10A9 (Fab, V domains shown, PH1 Fab variant) VH: QVQLVQSGGGLVQPGGSLRLSCAASGFTFRSNAMGWVRQAPGKGLEWVSGISGSGGSTYYADSVKGRFTISRDNSKNTLYLQMNSLRAEDTAVYYCAKHTGGGVWDPIHNWGQGTLVTVSS VL: EIVLTQSPLSLPVTPGEPASISCRSSQSLLHSNGYTYLDWYLQKPGQSPQLLIYSGSHRASGVPDRFSGSVSGTDFTLRISRVEAEDVGVYYCMQGLQSPFTFGPGTKVDIKR: binds
